Field: pIC50. Provide a value for each of the compounds that follow.
# Test system: SW-620
# method: Cytotoxicity against human SW620 cells after 24 hrs by MTT assay
# Format: functional, cell-based
# condition_context: SW-620, 24 h
Numbers only, as −log10 of the molar value.

| molecule | pIC50 |
| --- | --- |
| C=C(C)[C@@]12O[C@@]3(/C=C/C=C/CCCCC)O[C@@H]1[C@@H]1[C@H](O)[C@@](O)(CO)[C@@H](O)[C@]4(O)C(=O)C(C)=C[C@H]4[C@@]1(O3)[C@H](C)[C@H]2OC(=O)c1ccccc1 | 5.52 |

Would you kindly look at the next entry?
Param item = C=C(C)[C@@]12O[C@@]3(/C=C/C=C\CCCCC)O[C@@H]1[C@@H]1[C@@H]4O[C@]4(CO)[C@@H](O)[C@]4(O)C(=O)C(C)=C[C@H]4[C@@]1(O3)[C@H](C)[C@H]2OC(=O)c1ccccc1 ; retrieve measured pIC50.
5.07

Reference source: ChEMBL document CHEMBL4610097
